Tested on: recombinant NL-Rluc virus
measurement notes: Inhibition of HIV replication (NL-RLuc luciferase reporter virus, MT-2 cells)
Type: cell-based
run conditions: Human immunodeficiency virus 1, MT2, 120 h, read-out: EC50 μM
Hi there, I'd appreciate the recorded EC50 for every entry that follows.
Give bare numbers, in µM.

Problem: Recorded EC50 of Cc1nc2cc(C(=O)NCCC(C)(C)C)nn2c(N2CCC(C)(C)CC2)c1[C@H](OC(C)(C)C)C(=O)O , please.
Solution: 0.03

Problem: Query (compound): Cc1nc2cc(C(=O)NCc3ccc(S(N)(=O)=O)cc3)nn2c(-c2cc(F)c3c(c2C)CCCO3)c1[C@H](OC(C)(C)C)C(=O)O ; field requested: EC50
Solution: 3.19

For every listed record, write down its EC50.
1. Cc1nc2cc(C(=O)NCCOC(C)(C)C)nn2c(-c2cc(F)c3c(c2C)CCCO3)c1[C@H](OC(C)(C)C)C(=O)O
2. Cc1nc2cc(C(=O)NCCNc3ccccc3)nn2c(-c2cc(F)c3c(c2C)CCCO3)c1[C@H](OC(C)(C)C)C(=O)O
3. Cc1nc2cc(C(=O)NCc3ccc(F)cc3)nn2c(-c2cc(F)c3c(c2C)CCCO3)c1[C@H](OC(C)(C)C)C(=O)O
4. Cc1nc2cc(C(=O)NCc3cccc(OC(F)(F)F)c3)nn2c(-c2cc(F)c3c(c2C)CCCO3)c1[C@H](OC(C)(C)C)C(=O)O

Solution:
[0.073, 0.281, 0.053, 0.009]

----------
Tested on: recombinant NL-Rluc virus
measurement notes: Inhibition of HIV replication (NL-RLuc luciferase reporter virus, MT-2 cells)
Type: cell-based
run conditions: Human immunodeficiency virus 1, MT2, 120 h, read-out: Activity
Give measured EC50 for each item. Keep answers brief.

Observe how each entry below is paired with its result.
Problem: Entry Cc1nc2cc(C(=O)NCc3ccc(C#N)cc3)nn2c(-c2cc(F)c3c(c2C)CCCO3)c1[C@H](OC(C)(C)C)C(=O)O has what EC50?
Solution: 100 to 1000 nM

Problem: Consider the molecule Cc1nc2cc(C(=O)NCC3CCOCC3)nn2c(-c2cc(F)c3c(c2C)CCCO3)c1[C@H](OC(C)(C)C)C(=O)O and give its measured EC50.
Solution: 100 to 1000 nM

Problem: Query: EC50; subject: COc1cc(F)ccc1CNC(=O)c1cc2nc(C)c([C@H](OC(C)(C)C)C(=O)O)c(-c3cc(F)c4c(c3C)CCCO4)n2n1
Solution: < 100 nM

Report EC50 for each item below.
1. Cc1nc2cc(C(=O)NCc3ccccc3)nn2c(-c2cc(F)c3c(c2C)CCCO3)c1[C@H](OC(C)(C)C)C(=O)O
2. Cc1ccccc1CNC(=O)c1cc2nc(C)c([C@H](OC(C)(C)C)C(=O)O)c(-c3cc(F)c4c(c3C)CCCO4)n2n1
3. Cc1nc2cc(C(=O)N(C)Cc3ccccc3)nn2c(-c2cc(F)c3c(c2C)CCCO3)c1[C@H](OC(C)(C)C)C(=O)O

Solution:
< 100 nM
< 100 nM
< 100 nM

----------
System: recombinant NL-Rluc virus
measurement notes: Inhibition of HIV replication (NL-RLuc luciferase reporter virus, MT-2 cells)
Assay type: cell-based
run conditions: Human immunodeficiency virus 1, MT2, 120 h, read-out: Activity
observable: EC50

Reference set (5 entries):
Problem: Fill in: EC50 of Cc1nc2cc(C(=O)NCc3cccc(Cl)c3Cl)nn2c(-c2cc(F)c3c(c2C)CCCO3)c1[C@H](OC(C)(C)C)C(=O)O [Example 117] is ___
Solution: < 100 nM

Problem: Field request: EC50 | item: Cc1nc2cc(C(=O)N(C)Cc3cccnc3)nn2c(-c2cc(F)c3c(c2C)CCCO3)c1[C@H](OC(C)(C)C)C(=O)O [Example 97]
Solution: > 1000 nM

Problem: Entry Cc1nc2cc(C(=O)NCc3ccc(F)cc3-n3nncc3C)nn2c(-c2cc(F)c3c(c2C)CCCO3)c1[C@H](OC(C)(C)C)C(=O)O [Example 10] : reported EC50 = ?
Solution: 100 to 1000 nM

Problem: So what does the record say about EC50 for Cc1nc2cc(C(=O)NCc3ccc(N(C)C)cc3)nn2c(-c2cc(F)c3c(c2C)CCCO3)c1[C@H](OC(C)(C)C)C(=O)O [Example 52] ?
Solution: < 100 nM

Problem: I have this compound here, Cc1nc2cc(C(=O)NCc3ccc(F)cc3O)nn2c(-c2cc(F)c3c(c2C)CCCO3)c1[C@H](OC(C)(C)C)C(=O)O [Example 63] , and I need its recorded EC50.
Solution: < 100 nM

Parameter requested: EC50. Apply to each item below.
1. Cc1nccc(-c2cccc(NC(=O)c3cc4nc(C)c([C@H](OC(C)(C)C)C(=O)O)c(-c5cc(F)c6c(c5C)CCCO6)n4n3)c2)n1 [Example 85]
2. COc1ccc(CNC(=O)c2cc3nc(C)c([C@H](OC(C)(C)C)C(=O)O)c(-c4cc(F)c5c(c4C)CCCO5)n3n2)cc1 [Example 110]
3. Cc1nc2cc(C(=O)NCCCC3CCCCC3)nn2c(-c2cc(F)c3c(c2C)CCCO3)c1[C@H](OC(C)(C)C)C(=O)O [Example 131]
4. Cc1nc2cc(C(=O)NCc3ccccn3)nn2c(-c2cc(F)c3c(c2C)CCCO3)c1[C@H](OC(C)(C)C)C(=O)O [Example 104]
5. CNC(=O)c1cc2nc(C)c([C@H](OC(C)(C)C)C(=O)O)c(-c3cc(F)c4c(c3C)CCCO4)n2n1 [Example 137]
6. Cc1ccc(CNC(=O)c2cc3nc(C)c([C@H](OC(C)(C)C)C(=O)O)c(-c4cc(F)c5c(c4C)CCCO5)n3n2)cc1 [Example 5]

Solution:
1: < 100 nM; 2: < 100 nM; 3: < 100 nM; 4: > 1000 nM; 5: > 1000 nM; 6: < 100 nM

Here are 2 compounds. What values of EC50 were reported for them?
1. Cc1nc2cc(C(=O)NCCC(C)C)nn2c(-c2cc(F)c3c(c2C)CCCO3)c1[C@H](OC(C)(C)C)C(=O)O [Example 49]
2. Cc1nc2cc(C(=O)N3CCc4ccccc4C3)nn2c(-c2cc(F)c3c(c2C)CCCO3)c1[C@H](OC(C)(C)C)C(=O)O [Example 79]

Solution:
1: < 100 nM; 2: < 100 nM

----------
Provide the reported pEC50 of each item.
Tested on: recombinant NL-Rluc virus
measurement notes: Inhibition of HIV replication (NL-RLuc luciferase reporter virus, MT-2 cells)
Format: cell-based
run conditions: Human immunodeficiency virus 1, MT2, 120 h, read-out: Activity
pEC50: −log10 of the molar value.

// solved cases for pEC50 follow
Problem: Given the entry Cc1nc2cc(C(=O)NCc3cccc(-n4cccc4)c3)nn2c(-c2cc(F)c3c(c2C)CCCO3)c1[C@H](OC(C)(C)C)C(=O)O , what pEC50 was observed with recombinant NL-Rluc virus?
Solution: > 7.00

Problem: Give recorded pEC50 with recombinant NL-Rluc virus for the following compound: Cc1nc2cc(C(=O)NCc3ccc(F)c(C(F)F)c3)nn2c(-c2cc(F)c3c(c2C)CCCO3)c1[C@H](OC(C)(C)C)C(=O)O
Solution: > 7.00

Problem: Param readout= pEC50; system= recombinant NL-Rluc virus; entry= Cc1nc2cc(C(=O)NCc3ccc(F)cc3-c3ncnn3C)nn2c(-c2cc(F)c3c(c2C)CCCO3)c1[C@H](OC(C)(C)C)C(=O)O ; returns value.
Solution: 6.00 to 7.00

Problem: Give recorded pEC50 with recombinant NL-Rluc virus for the following compound: Cc1nc2cc(C(=O)N3CCN(CCc4ccccc4)CC3)nn2c(-c2cc(F)c3c(c2C)CCCO3)c1[C@H](OC(C)(C)C)C(=O)O
Solution: 6.00 to 7.00

Value sought for every listed compound: pEC50.
1. Cc1nc2cc(C(=O)N(Cc3ccccc3)C(C)C)nn2c(-c2cc(F)c3c(c2C)CCCO3)c1[C@H](OC(C)(C)C)C(=O)O
2. CCN1CCN(C(=O)c2cc3nc(C)c([C@H](OC(C)(C)C)C(=O)O)c(-c4cc(F)c5c(c4C)CCCO5)n3n2)CC1
3. Cc1nc2cc(C(=O)N(C)CCCn3ccnc3)nn2c(-c2cc(F)c3c(c2C)CCCO3)c1[C@H](OC(C)(C)C)C(=O)O
4. Cc1nc2cc(C(=O)N(C)Cc3cccc(F)c3)nn2c(-c2cc(F)c3c(c2C)CCCO3)c1[C@H](OC(C)(C)C)C(=O)O
5. Cc1cc(CNC(=O)c2cc3nc(C)c(C(OC(C)(C)C)C(=O)O)c(-c4cc(F)c5c(c4C)CCCO5)n3n2)ccc1F (stereo in doubt)
6. Cc1nc2cc(C(=O)NCCOC(C)C)nn2c(-c2cc(F)c3c(c2C)CCCO3)c1[C@H](OC(C)(C)C)C(=O)O
7. COc1ccc(CCNC(=O)c2cc3nc(C)c([C@H](OC(C)(C)C)C(=O)O)c(-c4cc(F)c5c(c4C)CCCO5)n3n2)cc1
8. Cc1nc2cc(C(=O)N3CCC(c4ccc(F)cc4)CC3)nn2c(-c2cc(F)c3c(c2C)CCCO3)c1[C@H](OC(C)(C)C)C(=O)O (atropisomer, axis not shown)

Solution:
> 7.00
< 6.00
< 6.00
> 7.00
> 7.00
> 7.00
> 7.00
> 7.00

// for each compound below, give its pEC50
1. Cc1nc2cc(C(=O)NCCN3CCOCC3)nn2c(-c2cc(F)c3c(c2C)CCCO3)c1[C@H](OC(C)(C)C)C(=O)O
2. Cc1nc2cc(C(=O)N[C@H]3C[C@@H]3c3ccccc3)nn2c(-c2cc(F)c3c(c2C)CCCO3)c1[C@H](OC(C)(C)C)C(=O)O

Solution:
< 6.00
> 7.00
